- Method summary: probe aNog binding to arrayed compounds – biochemical, biotinylated probe, 635/667 nm fluorescence, primary screen (AID 1115);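 also: probe is biotinylated aNog protein used at 0.15 µg/mL for 1 h at 4 C; z-score combines 667 nm fluorescence of each spot with its signal to noise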
- Experimental parameters: small-molecule microarray, higher = more signal
Result type: composite z-score
Output spec: single numeric token, no unit.

Answered examples (2):
1. [N-]=[N+]=NCc1ccccc1[C@H]1OC(c2ccc(OCCCO)cc2)=N[C@@]1(Cc1ccccc1N=[N+]=[N-])C(=O)NCCN1CCOCC1 :: 2.06
2. C=CCOC(=O)[C@@H]1[C@H]2C(=O)O[C@H](c3ccccc3)[C@H](c3ccccc3)N2[C@H](c2ccc(OCCOC(=O)[C@@H]3C[C@@H]4C(=O)N5CCC[C@H]5C(=O)N4[C@@H]3c3cccc(OCCO)c3)cc2)[C@@]12C(=O)Nc1ccc(I)cc12 :: -0.342

### Prompt Entry under review: CC(C)c1ccc(NN2C(C(O)c3ccccn3)C=CC3C(=O)N(c4ccccc4)C(=O)C32)cc1 (stereo not drawn) . Reported composite z-score?
### Response 1.7

###

- Tested on: Inhibin beta A chain (activin A)
- Method summary: small molecules binding activin A – biochemical, small-molecule microarray, 635 nm fluorescence scan, primary screen (AID 1107);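 also: mouse activin A protein probed at 4.33 µg/mL on printed slides; score merges bound-protein fluorescence near 667 nm with spot signal-to-noise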
- Experimental parameters: INHBA, higher = more signal
composite z-score values by entry

1. O=C1c2ccccc2C(=O)C2CC([C@H]3Oc4ccccc4S(=O)(=O)N4CCC[C@@H]34)=CCC12 (stereo partly drawn) :: 0.771
2. CN(C)CCCCNC(=O)[C@H]1C[C@H]2C(=O)N[C@@H](CCCC[N+](C)(C)C)C(=O)N2[C@H]1c1cccc(OCCO)c1 :: 0.877

Here's the next entry for you.
### Prompt # get_value(readout='composite z-score', item= C=CCOC(=O)[C@@H]1[C@H]2C(=O)O[C@H](c3ccccc3)[C@H](c3ccccc3)N2[C@H](c2ccc(OCCOC(=O)[C@H]3C[C@H]4C(=O)N[C@@H](Cc5ccccc5)C(=O)N4[C@H]3c3cccc(OCCO)c3)cc2)[C@@]12C(=O)Nc1ccc(I)cc12 )
### Response 0.967

###

- Test system: wheat germ agglutinin (Triticum aestivum), Alexa647-labelled
- Method summary: Alexa647-WGA lectin binding to printed small molecules – biochemical, small-molecule microarray, 635/667 nm fluorescence, artefact control for SMM control-protein annotation, profiling panel (AID 1140);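 also: score merges 667 nm feature emission with signal to noise over triplicate slides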
- Experimental parameters: WGA-A647 binding, 635 nm fluorescence, higher = more signal
Listed here are molecules together with their documented composite z-score.

Some solved cases for reference:
1) CC(C)[Si](C#C[Si](C(C)C)(C(C)C)C(C)C)(O[C@H](C)c1cn(Cc2cccc(Cl)c2)nn1)C(C)C :: 1.17
2) O=C1O[C@H](c2ccccc2)[C@H](c2ccccc2)N2[C@H]1[C@@H](C(=O)N1CCN(c3ncccn3)CC1)[C@]1(C(=O)Nc3ccc(C#CCCO)cc31)[C@H]2c1ccc(OCCO)cc1 :: 0.772
3) COc1ccccc1CN1C(=O)c2ccccc2[C@@]2(Cc3ccccc3N(C3CC3)C2=O)[C@@H]1c1ccc(CO)cc1 :: -0.0487

### Prompt composite z-score lookup needed for CCOC(=O)C1=CC[C@@H](c2cccc(Br)c2)N(S(=O)(=O)c2ccc(C)cc2)[C@H]1c1ccc([N+](=O)[O-])cc1 , thanks.
### Response 0.743

### Prompt Which composite z-score value is on record for COC(=O)[C@@]1(Cc2ccccc2)[C@H]2c3cc(C(=O)N4CCCC4)n(Cc4ccccc4)c3C[C@H]2CN1C(=O)c1ccccc1 ?
### Response 0.893

###

- Method summary: hepatitis C replication reporter changes, two-sided – Huh7 cells, luciferase reporter, HCV replication inhibitor project, primary screen (AID 1109);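 also: huh7 hepatoma cells harbouring a luciferase neomycin HCV replicon reporter; luciferase luminescence as measure of HCV replicon replication; test concentration not given here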
- Experimental parameters: Huh7 HCV replicon luciferase reporter, 48 h; higher = more signal
// z-score lookup, one value per entry
Please state the value as a number alone, without comment.

1. COC(=O)[C@@]1(Cc2ccc(OC)cc2)[C@H]2c3cc(C(=O)N4CCCC4)n(CCF)c3C[C@H]2CN1C(=O)c1ccccc1 :: -1.27
2. O=C1C2C=CC(C(O)c3ccc(Br)cc3)N(Nc3ccccc3)C2C(=O)N1c1ccccc1 (centres undefined) :: 0.393
3. COc1ccccc1CN1C(=O)c2ccccc2[C@](Cc2ccccc2I)(C(=O)NCCN2CCOCC2)[C@@H]1c1ccc(CO)cc1 :: -2.96

Please examine the following record next.
### Prompt What value of z-score has been reported for the following compound? C=CCOc1ccc([C@@H]2CC=C(C(=O)OCC)[C@H](c3cccc(Br)c3)N2S(=O)(=O)c2ccc(C)cc2)cc1
### Response -1.12

###

- Method summary: calcein-AM signal in unstimulated myeloma cells – cell-based, calcein-AM fluorescence, 48 h, PK04 Diversity Set, profiling panel (AID 1166);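 also: cells grown under basal conditions without added stimulus; test concentration not given here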
- Experimental parameters: RPMI8226 myeloma viability, higher = more signal
// z-score lookup, one value per entry
Just the number.

### Prompt // z-score lookup, key: COc1ccc([Si](C)(C)[C@@H]2[C@@H](CCO)O[C@]3(C(=O)N(Cc4ccc(N5C(=O)c6ccccc6Oc6ccccc65)cc4)c4ccccc43)[C@H]2C)cc1
### Response -3.17

###

- Method summary: probe aNOTCH2 binding on compound microarray – biochemical, small-molecule microarray, 635/667 nm fluorescence, primary screen (AID 1121);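 also: score merges feature fluorescence read at 667 nm with its signal to noise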
- Experimental parameters: higher = more signal
# Lookup of reported composite z-score keyed by entry
Answer with the value's number alone.

1) CN(C)CCCN1C(=O)[C@@]2(Cc3ccccc31)c1ccccc1C(=O)N(Cc1ccccc1)[C@H]2c1ccc(CO)cc1 :: -0.181
2) CN(C)C(=O)[C@@]1(CCC(=O)OC(C)(C)C)N=C(c2ccc(OCCCO)cc2)O[C@H]1c1ccccc1N=[N+]=[N-] :: -0.0129
3) COC(=O)[C@H]1N=C(c2ccc(OCCCO)cc2)O[C@H]1c1ccccc1CN=[N+]=[N-] :: -0.0174
4) CN(C)CCCCNC(=O)[C@H]1C[C@H]2C(=O)N[C@@H](CCCC[N+](C)(C)C)C(=O)N2[C@H]1c1cccc(OCCO)c1 :: -0.112
5) CN(C)CCCCCCNC(=O)[C@@H]1C[C@@H]2C(=O)NCC(=O)N2[C@@H]1c1ccc(O)cc1 :: -0.126

### Prompt Item [N-]=[N+]=NCc1ccccc1C[C@]1(C(=O)NCCN2CCOCC2)COC(c2ccc(OCCCO)cc2)=N1 has what recorded composite z-score?
### Response -0.106

### Prompt Sample NC(=O)[C@@H]1[C@H]2C(=O)O[C@H](c3ccccc3)[C@H](c3ccccc3)N2[C@H](c2ccccc2OCCO)[C@@]12C(=O)Nc1ccc(C#CCCO)cc12 — what was its composite z-score?
### Response -0.147

### Prompt Value lookup for composite z-score; key = NC(=O)NCC#Cc1ccc2c(c1)[C@]1(C(=O)N2)[C@H](c2ccc(O)cc2)N2[C@H](c3ccccc3)[C@H](c3ccccc3)OC(=O)[C@H]2[C@@H]1C(N)=O
### Response 0.104

### Prompt # lookup: composite z-score of [N-]=[N+]=NCc1ccccc1[C@H]1OC(c2ccc(OCCCO)cc2)=N[C@@]1(Cc1ccccc1N=[N+]=[N-])C(=O)NCCN1CCOCC1
### Response 0.105

### Prompt Can you share its composite z-score? I mean this compound: COc1ccc(CCNC(=O)[C@@H]2c3ccccc3C(=O)N(Cc3ccccc3)[C@H]2c2ccc(CO)cc2)cc1
### Response -0.0562

### Prompt Looking for the measured composite z-score of OCCCC1=CC(c2cccs2)N(Cc2cccc(OC(F)(F)F)c2)CC1 (stereo not drawn) , can you help?
### Response 0.072

### Prompt Any idea what composite z-score was measured for COc1ccc([Si](C)(C)[C@H]2[C@H](CC(=O)N3CCC[C@H]3CO)O[C@@]3(C(=O)N(Cc4ccc(N5C(=O)c6cccc7cccc5c67)cc4)c4ccccc43)[C@@H]2C)cc1 ?
### Response -0.146

### Prompt Which composite z-score is reported for this compound? CC(C)CCC[C@@H](C)[C@H]1CC[C@@]2(C)C3=C(CC[C@]12C)[C@@]1(C)CC[C@H](OC(=O)C(C)(C)C)C(C)(C)C1CC3 (stereo partly drawn)
### Response -0.191

###

- Method summary: probe aNog binding to arrayed compounds – biochemical, biotinylated probe, 635/667 nm fluorescence, primary screen (AID 1115);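 also: probe is biotinylated aNog protein used at 0.15 µg/mL for 1 h at 4 C; z-score combines 667 nm fluorescence of each spot with its signal to noise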
- Experimental parameters: small-molecule microarray, higher = more signal
Outcome label depends on composite z-score relative to -0.07: at/above gives 1, below gives -1.

Reference set (5 entries):
1. Cc1ccc(S[C@]2(C(=O)NCCN3CCOCC3)CC(=O)N(C3Cc4ccccc4C3)[C@@H]2c2ccc(CO)cc2)cc1 :: 1
2. COC(=O)[C@@]1(Cc2ccc(F)cc2)[C@@H]2[C@@H](CC(=O)[C@H]2CC(=O)C(=O)N2CCCC2)CN1C(=O)c1ccccc1 :: 1
3. CCCN1C(=O)[C@@H]2Cc3c([nH]c4ccccc34)[C@@H](c3cccc(O)c3)N2C1=O :: -1
4. O=[N+]([O-])c1ccc(C[n+]2ccc(-c3ccc(CO)cc3)cc2)o1 :: 1
5. Cc1ccc(S[C@]2(C(=O)NCc3ccccc3)CC(=O)N(C3Cc4ccccc4C3)[C@@H]2c2ccc(CO)cc2I)cc1 :: 1

### Prompt State whether the measured composite z-score reaches -0.07, counting equality as reaching it, for CCCCC(=C=CC[C@H](O)c1cccc(OCCO)c1)C[C@H](O)COCc1ccccc1
### Response -1

### Prompt I'd appreciate it if you could say whether COCCOC(=O)N1C(=O)[C@@]2(c3cc(C#Cc4ccc(OC)cc4)ccc31)[C@H](C(N)=O)[C@H]1C(=O)O[C@H](c3ccccc3)[C@H](c3ccccc3)N1[C@@H]2c1ccc(OCCO)cc1 has composite z-score at least equal to -0.07.
### Response 1

### Prompt Is composite z-score for CC(C)(C)N1CC=CC23O[C@@H]4C=CCCOC(=O)C4[C@H]2C(=O)N(CCCO)[C@@H]3C1=O (some centres not stated) at or above -0.07?
### Response -1

### Prompt Say whether C=C(/C(=C/C[C@@H](OC(=O)c1ccncc1)c1cccc(OCCO)c1)c1cc(C(=O)OC)ccc1OC)C(C)C shows composite z-score of -0.07 or more.
### Response 1

### Prompt Does composite z-score meet or surpass -0.07 for CC[C@@H]1[C@@H]2C3C(=O)N(CC)C(=O)C3CC(=O)[C@@H]2[C@H](c2ccc(C)cc2)N1S(=O)(=O)c1ccc(C)cc1 (some centres not stated) ?
### Response -1

### Prompt Item C=C(COC)C(=O)CC[C@H](OC(=O)c1ccccc1-c1ccccc1C(=O)O)c1ccc(CO)o1 with composite z-score of -0.07 or above?
### Response -1

### Prompt Say whether [N-]=[N+]=NCc1ccccc1C[C@]1(C(=O)NCCN2CCOCC2)N=C(c2ccc(OCCCO)cc2)O[C@H]1c1ccccc1 shows composite z-score of -0.07 or more.
### Response -1

### Prompt Does the reported composite z-score for CC(=O)NCCCC[C@@H]1NC(=O)[C@@H]2C[C@H](C(=O)NCCCC[N+](C)(C)C)[C@H](c3cccc(OCCO)c3)N2C1=O fall at or above the -0.07 mark?
### Response -1

### Prompt Is composite z-score for O=C1CSC(c2cccc([N+](=O)[O-])c2)N1c1ccccc1 (configuration not stated) at or above -0.07?
### Response -1

### Prompt Please indicate if the recorded composite z-score for CC(C)C(CO)N1C(=O)[C@@H]2[C@H]3C(=O)OCC=C[C@H]3OC23C=CCN(Cn2nnc4ccccc42)C(=O)[C@@H]13 (some centres not stated) meets or exceeds -0.07.
### Response -1

### Prompt Test whether the molecule CCOc1cc(C(O)C2C=CC3C(=O)NC(=O)C3N2Nc2ccccn2)ccc1O (configuration not stated) records composite z-score of -0.07 or higher.
### Response 1

### Prompt API: above_or_equal(metric=composite z-score, cutoff=-0.07) for item O=C(C=C(CC(O)c1cccc(Cl)c1)OCCF)OCCF (configuration not stated)
### Response 1
